Target: UniProt Q9UGI0
Sequence (Q9UGI0 whole entry, the tested form may be a part): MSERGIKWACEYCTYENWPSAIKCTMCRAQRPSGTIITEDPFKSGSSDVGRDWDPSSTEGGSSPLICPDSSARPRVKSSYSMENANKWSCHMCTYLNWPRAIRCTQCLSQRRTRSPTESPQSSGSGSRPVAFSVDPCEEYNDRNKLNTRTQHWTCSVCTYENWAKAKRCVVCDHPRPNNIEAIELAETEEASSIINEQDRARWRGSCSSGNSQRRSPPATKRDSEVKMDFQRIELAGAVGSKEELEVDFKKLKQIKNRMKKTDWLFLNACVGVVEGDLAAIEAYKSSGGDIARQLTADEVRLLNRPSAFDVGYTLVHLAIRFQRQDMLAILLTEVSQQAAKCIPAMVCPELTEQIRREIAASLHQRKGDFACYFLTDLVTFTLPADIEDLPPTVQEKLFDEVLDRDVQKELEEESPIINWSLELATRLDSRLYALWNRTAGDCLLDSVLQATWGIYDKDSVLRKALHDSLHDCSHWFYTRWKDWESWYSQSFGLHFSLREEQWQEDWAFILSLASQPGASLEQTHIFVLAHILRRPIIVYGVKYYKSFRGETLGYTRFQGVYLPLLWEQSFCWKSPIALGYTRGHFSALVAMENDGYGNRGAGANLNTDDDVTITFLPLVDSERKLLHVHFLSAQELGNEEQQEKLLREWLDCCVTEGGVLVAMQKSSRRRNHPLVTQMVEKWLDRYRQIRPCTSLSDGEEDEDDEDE
Experiment: log2 ratio of Biotin-Ahx-Ub-VS probe labelling (fragment/DMSO); higher = less target engagement (more negative = stronger competition), active = hit call of the paper (q ≤ 0.05, log2 ratio ≤ -1)
Conditions: compound concentration: 200 uM; treatment time: 3 h
Hi there, use one of these labels in your reply, thanks! active, inactive

Qu. Please share the test call associated with Cc1cccc(NC(=O)[C@@H]2CCCN2C(=O)CCl)n1 .
Ans. inactive

Qu. Can you handle CN(Cc1nc2ccccc2[nH]1)C(=O)CCl.Cl next?
Ans. inactive

Qu. Next compound: CC1(NC(=O)CCl)CCS(=O)(=O)C1 (centres undefined)
Ans. inactive

Qu. Now the same for COc1cccc(CN(C)C(=O)CCl)c1
Ans. active

Qu. Same again, this time with Cc1nc(-c2cccc(NC(=O)CCl)c2)cs1
Ans. active

Qu. Would you mind doing Cc1cccc(C(CNC(=O)CCl)N2CCOCC2)c1.Cl (centres undefined) as well?
Ans. inactive

Qu. Quick one: O=C(CCl)Nc1ccc(F)cc1F
Ans. inactive

Qu. Consider next the compound CN1c2ccccc2C(NC(=O)CCl)CS1(=O)=O (centres undefined) in the same way.
Ans. inactive

Qu. Next up: Cl.O=C(CCl)NC1(c2ncccn2)CCC1
Ans. inactive

Qu. Quick one: O=C(CCl)NCCc1ccc(F)cc1
Ans. inactive

Qu. How about COc1cc(Cl)c(C)cc1NC(=O)CCl ?
Ans. active

Qu. Input O=C(CCl)NC1(c2ccc3c(c2)OCCO3)CCCC1
Ans. inactive

Qu. Please do the same for Cl.Cn1cnc2cc(CNC(=O)CCl)ccc21 as well.
Ans. inactive

Qu. Moving on to the next compound: Cl.Cn1c(CNC(=O)CCl)nc2cccnc21
Ans. inactive

Qu. Param item: CS(=O)(=O)c1ccc(CNC(=O)CCl)cc1
Ans. inactive

Qu. And for Cl.O=C(CCl)N[C@H]1C[C@@H](n2cccn2)C1 ?
Ans. inactive

Qu. Follow-up item: Cc1cccc(C)c1NC(=O)CCl
Ans. inactive

Qu. # iterate: CC1Cc2ccccc2N1C(=O)CCl (centres undefined)
Ans. inactive

Qu. Similarly, Cl.Cn1ncc2c1CC(NC(=O)CCl)CC2 (centres undefined) ?
Ans. inactive

Qu. Subsequent entry: Cc1cccn2cc(CCNC(=O)CCl)nc12.Cl
Ans. inactive

Qu. Item: CC(C)n1nccc1NC(=O)CCl
Ans. inactive

Qu. Next: Cl.O=C(CCl)N1CCCC(c2ncc[nH]2)C1 (centres undefined)
Ans. inactive

Qu. Another compound to check: CN(C)C(=O)c1ccc(NC(=O)CCl)cc1
Ans. inactive

Qu. Query O=C(CCl)N1CCCCCC1c1ncon1 (centres undefined) next
Ans. inactive

Qu. What do we get for O=C(CCl)N1CCc2[nH]c3ccccc3c2C1 ?
Ans. active

Qu. CC(NC(=O)CCl)c1cccc2ccccc12 (centres undefined) , same question.
Ans. inactive

Qu. Then this compound: O=C(CCl)N1CCOC2(CCC2)CC1
Ans. active

Qu. Now try O=C(CCl)Nc1cccc2ncccc12 .
Ans. active

Qu. Next up: O=C(CCl)N1CCCC1c1ccsc1 (centres undefined)
Ans. active

###

Target: USP28 (UniProt Q96RU2)
Sequence (Q96RU2 whole entry, the tested form may be a part): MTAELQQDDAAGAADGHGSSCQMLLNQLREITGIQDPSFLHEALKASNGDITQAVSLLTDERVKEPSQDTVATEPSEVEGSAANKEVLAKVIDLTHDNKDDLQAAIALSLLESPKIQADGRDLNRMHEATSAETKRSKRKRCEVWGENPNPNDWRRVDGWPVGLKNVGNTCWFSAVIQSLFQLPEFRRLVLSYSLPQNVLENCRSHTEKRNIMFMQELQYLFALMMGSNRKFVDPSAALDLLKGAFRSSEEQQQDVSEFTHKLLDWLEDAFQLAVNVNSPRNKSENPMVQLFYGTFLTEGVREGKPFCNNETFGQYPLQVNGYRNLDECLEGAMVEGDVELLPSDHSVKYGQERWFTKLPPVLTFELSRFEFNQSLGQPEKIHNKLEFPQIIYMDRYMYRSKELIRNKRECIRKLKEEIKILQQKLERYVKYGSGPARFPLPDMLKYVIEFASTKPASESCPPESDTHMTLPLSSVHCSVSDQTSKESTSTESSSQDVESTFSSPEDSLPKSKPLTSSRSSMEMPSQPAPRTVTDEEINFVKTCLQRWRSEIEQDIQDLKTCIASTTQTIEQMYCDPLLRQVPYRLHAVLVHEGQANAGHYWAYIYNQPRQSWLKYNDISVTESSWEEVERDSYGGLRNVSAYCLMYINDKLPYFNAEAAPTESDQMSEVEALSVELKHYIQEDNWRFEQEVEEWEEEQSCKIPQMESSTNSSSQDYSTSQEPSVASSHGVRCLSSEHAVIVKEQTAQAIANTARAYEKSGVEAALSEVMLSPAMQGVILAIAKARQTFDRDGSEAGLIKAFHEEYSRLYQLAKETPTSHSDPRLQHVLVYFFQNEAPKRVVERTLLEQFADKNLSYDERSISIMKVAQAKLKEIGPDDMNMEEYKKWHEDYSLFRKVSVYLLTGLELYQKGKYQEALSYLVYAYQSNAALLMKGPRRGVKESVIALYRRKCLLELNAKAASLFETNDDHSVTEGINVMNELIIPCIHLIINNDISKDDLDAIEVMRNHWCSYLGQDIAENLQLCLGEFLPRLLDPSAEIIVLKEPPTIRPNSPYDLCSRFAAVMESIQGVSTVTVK
Experiment: log2 ratio of Biotin-Ahx-Ub-VS probe labelling (fragment/DMSO); higher = less target engagement (more negative = stronger competition), active = hit call of the paper (q ≤ 0.05, log2 ratio ≤ -1)
Settings: compound concentration: 200 uM; treatment time: 3 h
# cutoff -0.6 applies to log2 ratio of Biotin-Ahx-Ub-VS probe labelling; >= gives class 1, < gives class 0

Qu. Reported log2 ratio of Biotin-Ahx-Ub-VS probe labelling at or above -0.6? CCN1C(=O)C2CN(C(=O)CCl)CCN2C1=O (configuration not stated)
Ans. class 1

Qu. Then what about the compound O=C(CCl)NCCC1COCCO1 (configuration not stated) ?
Ans. class 1

Qu. Item: O=C(CCl)Nc1cc2c(cc1Cl)OCCO2
Ans. class 0

Qu. Another compound to check: Cc1cccn2cc(CCNC(=O)CCl)nc12.Cl
Ans. class 1

Qu. // repeat for Cl.O=C(CCl)NC1(c2ncccn2)CCC1 and report
Ans. class 1

Qu. Same question, Cl.O=C(CCl)N1CCn2ncc(O)c2C1 this time
Ans. class 0

Qu. Same question, Cl.O=C(CCl)NCCc1ncc(F)cc1F this time
Ans. class 1

Qu. Now consider O=C(CCl)N1CCC(=C(F)CO)C1 .
Ans. class 1

Qu. Try this compound too: O=C(CCl)NC1CCOc2ccccc21 (configuration not stated)
Ans. class 0

Qu. Please give the result for Cl.O=C(CN1CCN(C(=O)CCl)CC1)Nc1ccc(F)cc1 too.
Ans. class 1

Qu. Param item: O=C(CCl)Nc1ccc(N2CCCC2=O)cc1
Ans. class 0

Qu. And the next one, O=C(CCl)N1CCN2C(=O)CCC2C1 (configuration not stated) ?
Ans. class 1

Qu. Another compound to look at: Cl.O=C(CCl)N1CCC(Cc2nccs2)C1 (configuration not stated)
Ans. class 1

Qu. Same for Cl.O=C(CCl)NCc1cc2c(nc1O)CCCC2
Ans. class 1

Qu. Same read-out for CC(=O)C1CCCCN1C(=O)CCl (configuration not stated) ?
Ans. class 1

Qu. Lookup CN(CCC(O)c1ccc(Br)cc1)C(=O)CCl (configuration not stated)
Ans. class 1

Qu. Please give the result for CN(C(=O)CCl)c1nc2ccccc2s1 too.
Ans. class 1

Qu. And what about the compound Cc1nc(CNC(=O)CCl)c2ccccn12.Cl ?
Ans. class 1

Qu. Do the same for CN1c2ccccc2C(NC(=O)CCl)CS1(=O)=O (configuration not stated) please
Ans. class 0

Qu. And the next one, O=C(CCl)N1CCCC2CCCCC21 (configuration not stated) ?
Ans. class 1

Qu. Field entry: Cl.Cn1nccc1C(NC(=O)CCl)c1ccccc1 (configuration not stated)
Ans. class 1

Qu. How about CCN(C(=O)CCl)C1CCCCC1 ?
Ans. class 1

Qu. How about this compound: COc1ccc(-c2csc(NC(=O)CCl)n2)cc1
Ans. class 0

Qu. What about Cc1ccc(C(=O)NCCNC(=O)CCl)cc1 ?
Ans. class 1

Qu. Again, but for Cc1conc1C1CN(C(=O)CCl)C1
Ans. class 0

Qu. Note, next up: Cc1cnc2[nH]cc(CCNC(=O)CCl)c2c1
Ans. class 0

Qu. Input O=C(CCl)NC(Cn1ccccc1=O)c1ccccc1 (configuration not stated)
Ans. class 1

Qu. Same lookup for CC(NC(=O)CCl)c1cccc2ccccc12 (configuration not stated) , please.
Ans. class 1

Qu. Also check Cc1ccc(N(CCC#N)C(=O)CCl)cc1C
Ans. class 0

Qu. And the next one, CNC(=O)C1CCN(C(=O)CCl)CC1 ?
Ans. class 1

Qu. Next entry: O=C(CCl)N1CCCCCC1c1ncon1 (configuration not stated)
Ans. class 1

Qu. Here is the next compound: O=C(CCl)NCCc1ccc(F)cc1
Ans. class 1

Qu. Try this compound next: O=C(CCl)N1CCOC(c2cccc(F)c2)C1 (configuration not stated)
Ans. class 0

Qu. Another: Cc1nc(-c2cccc(NC(=O)CCl)c2)cs1
Ans. class 0

Qu. Check Cc1cc(C(=O)NC2CCN(C(=O)CCl)CC2)no1 too.
Ans. class 1

Qu. Another compound to check: O=C(CCl)N1CCC(OCc2ccccc2F)CC1
Ans. class 1

Qu. And Cl.Cn1cnc2cc(CNC(=O)CCl)ccc21 ?
Ans. class 1

Qu. What do we get for O=C(CCl)N1CCCN(C(=O)c2ccc(Cl)cc2)CC1 ?
Ans. class 0

Qu. Also check Cc1n[nH]c2c1CN(C(=O)CCl)CC2
Ans. class 0

Qu. What about this compound? O=C(CCl)NCc1ccc2c(c1)OCO2
Ans. class 1

Qu. O=C(CCl)N1CCOC2(CCC2)CC1 , same question.
Ans. class 1

Qu. Now consider O=C(CCl)NCc1cccc(F)c1 .
Ans. class 1

Qu. Next compound: CC(NC(=O)CCl)c1csc(-c2ccccc2)n1.Cl (configuration not stated)
Ans. class 0

Qu. Similarly, O=C(CCl)NCCc1cccc2ccccc12 ?
Ans. class 1

Qu. Follow-up item: CC(=O)Nc1ccc(NC(=O)CCl)cc1
Ans. class 0

Qu. Another: O=C(CCl)N1CCC(O)(Cc2ccc(F)cc2)C1 (configuration not stated)
Ans. class 1

Qu. Next up: NC(=O)C(Cc1ccccc1)NC(=O)CCl (configuration not stated)
Ans. class 1

Qu. For N#Cc1ccc(CNC(=O)CCl)cc1 then?
Ans. class 1

Qu. Record: O=C(CCl)Nc1ccc2c(c1)OC(F)(F)O2
Ans. class 0

Qu. Repeat with CS(=O)(=O)c1ccc(NC(=O)CCl)cc1
Ans. class 0

Where do these numbers come from? They come from the supplement of paper PMC11732987.
